SYSTEM UNDER TEST: T1, human MYCT1 (hMYCT1) (human, UniProt Q8N699 1-235, limits assumed)
T1 construct: also called MYC Target 1
T1 sequence: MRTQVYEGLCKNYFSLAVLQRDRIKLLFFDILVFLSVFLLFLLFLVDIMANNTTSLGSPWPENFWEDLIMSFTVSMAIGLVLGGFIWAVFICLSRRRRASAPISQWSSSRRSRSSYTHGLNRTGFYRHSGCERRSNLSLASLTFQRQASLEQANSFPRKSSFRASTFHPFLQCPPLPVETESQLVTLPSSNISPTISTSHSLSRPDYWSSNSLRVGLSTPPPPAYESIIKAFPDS
EXPERIMENTAL DETAILS: SPR full kinetics, multicycle, antibody captured via anti-human Fc IgG, MYCT1 0.625-10 nM as analyte, 1:1 binding model
ASSAY ENDPOINT: kon (M⁻¹ s⁻¹)

{"BINDER": "11B6 parent antibody (antibody, V domains shown, Mouse parental variable domains; also called parent antibody (11B6); 11B6 clone) VH: EVQLVESGGGLVKPGGSLKLSCAASGFTFSDFGIHWVRQAPEKGLEWVGYISSGSRTIHYADTVKGRFTISRDNAKNTLFLQMTNLRSEDTAIYYCARRDWDPEWLAYWGQGTLVTISA VL: DVVMTQAPLSLPVSLGDQASISCRSSLSLVHSNGHTYLHWYLQKPGQSPKLLIYKVSNRFSGVPDRFSGSGSGTDFTLKIRRVEAEDLGVYFCSQSTHVPFTFGSGTKLEIK", "QUANTITATIVE READOUT": "3.44e+06"}
